Attribution: patent US20130251724A1

Target: T1, Cynomolgus OSM (cynomolgus, UniProt A0A2K5VPC6 26-221)
T1 construct: also called Cyno OSM; cynomolgus macaque OSM
T1 sequence: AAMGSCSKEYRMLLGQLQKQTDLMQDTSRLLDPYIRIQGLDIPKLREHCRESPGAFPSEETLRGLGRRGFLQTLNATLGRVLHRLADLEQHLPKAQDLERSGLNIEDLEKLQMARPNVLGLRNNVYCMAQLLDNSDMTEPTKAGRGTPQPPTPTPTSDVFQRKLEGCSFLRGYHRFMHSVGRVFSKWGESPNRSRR
Test: BIAcore kinetics, purified antibody
Reported Metric: kon (M⁻¹ s⁻¹)
Number in M⁻¹ s⁻¹, nothing else.

A selection of reference data follows.
Binder: 15E10h, non-competitive anti-OSM humanised antibody (antibody, human IgG1, kappa, V domains shown, also called Humanised 15E10; humanised 15E10) VH: QVQLVESGGGVVQPGRSLRLSCAASGFSLTNYGVHWVRQAPGKGLEWVAVIWRGGSTDYNAAFMSRFTISKDNSKNTLYLQMNSLRAEDTAVYYCAKSPNSNFYWYFDVWGRGTLVTVSS VL: EIVLTQSPATLSLSPGERATLSCSGSSSVSYMYWYQQKPGQAPRLLIEDTSNLASGIPARFSGSGSGTDYTLTISNLEPEDFAVYYCQQWSSYPPTFGQGTKLEIKR
kon / M⁻¹ s⁻¹: 507000
//
Binder: Humanised 10G8 H0L1 (antibody, human IgG1, kappa, V domains shown, IgG1 kappa; mature H0 heavy chain and mature L1 light chain; also called Humanised 10G8 H0L1 parent) VH: EVQLVESGGGLVQPGGSLRLSCAASGFTFSNYAMSWVRQAPGKGLEWVATISDGGSFTYYLDNVRGRFTISRDNAKNSLYLQMNSLRAEDTAVYYCARDVGHTTFWYFDVWGRGTLVTVSS VL: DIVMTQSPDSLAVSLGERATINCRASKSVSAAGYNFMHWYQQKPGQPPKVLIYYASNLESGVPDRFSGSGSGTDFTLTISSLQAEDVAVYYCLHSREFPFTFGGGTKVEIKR
kon / M⁻¹ s⁻¹: 427000
//
Binder: Humanised 10G8 H0(IGHV3-23)L1 (antibody, human IgG1, kappa, V domains shown, IgG1 kappa; also called H0(huCDRH1)L1; H0 (CDRH1 IGHV3_23) L1) VH: EVQLVESGGGLVQPGGSLRLSCAASGFTFSSYAMSWVRQAPGKGLEWVATISDGGSFTYYLDNVRGRFTISRDNAKNSLYLQMNSLRAEDTAVYYCARDVGHTTFWYFDVWGRGTLVTVSS VL: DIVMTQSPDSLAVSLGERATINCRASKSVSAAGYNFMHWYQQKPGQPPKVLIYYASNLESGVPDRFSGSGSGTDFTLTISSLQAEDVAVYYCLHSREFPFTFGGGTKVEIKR
kon / M⁻¹ s⁻¹: 423000

[in] Give a short answer stating reported kon for 10G8 chimaera (antibody, human IgG1, kappa, V domains shown, Mouse V regions on human gamma 1 wild type and human kappa constant regions; the entries called VH/VL domain (chimera) are full chains; also called 10G8 chimera; 10G8 Chimæra) VH: EMQLVESGEGLVEPGGSLKLSCAASGFTFSNYAMSWVRQTPEKSLEWVATISDGGSFTYYLDNVRGRFTISRDNAKNNLYLQMSHLKSDDTAMYYCARDVGHTTFWYFDVWGSGTLVTVSS VL: DIVLTQSPVFLVVSLGQRATISCRASKSVSAAGYNFMHWYQQKPGQPPKVLIKYASNLESGVPARFSGSGSGTDFTLNIHPVEEEDAVTYYCLHSREFPFTFGGGTNLEIKR .
[out] 250000
